Readings of MRT for the listed compounds
Experiment: Pharmacokinetic study in sham rats after oral administration of PLA
Format: in vivo
Conditions: rat, plasma, 50 mg/kg
Give the quantity in h, number only.

// below: answered compounds
{"columns": ["compound", "property label", "u", "observed result"],
 "data": [
  ["CC(C)CNC(=O)/C=C/C=C/c1ccc2c(c1)OCO2 [PPL, piperlonguminine]", "MRT", "h", 4.6],
  ["O=C(/C=C/CCc1ccc2c(c1)OCO2)N1CCCCC1 [PPRA, piperanine]", "MRT", "h", 3.72]
]}

Task: # input compound: O=C(/C=C/C=C/c1ccc2c(c1)OCO2)N1CCCCC1 [PPR, piperine] ; wanted: its MRT
Result: 6.83

All figures here come from paper PMC9075506.
